System: HepG2
assay.protocol: GSK_TCMDC: Percent inhibition of human HepG2 cell line. Test compounds present at 10uM.
Type: functional
assay.endpoint: Inhibition (%)
The response must be a number in % with no trailing unit.

Previously resolved entries follow.
molecule=Cc1ccc(NC(=O)N2CCC(n3c(-c4ccccc4)nc4cccnc43)CC2)cc1F experimental_result=23
molecule="COc1cccc2c(NCc3ccccc3)nc(NCCCN3CCCCC3C)nc12 (stereo not given)" experimental_result=20
molecule=Clc1cc(Nc2ncnc3cc(C#C[C@H]4CCCN4)sc23)cc2nc(Cc3ccccc3)[nH]c12.O=C(O)C(F)(F)F experimental_result=29

Provide one value: measured Inhibition of COc1cc(NC(=O)c2cc([N+](=O)[O-])ccc2NC(=O)CNC2CCCCC2C)cc(OC)c1 (stereo not given)
0

Specify measured Inhibition for Cl.ON=C1CCc2cc(-c3[nH]c(-c4cccc(OCCNCc5ccc(F)cc5)c4)nc3-c3ccncc3)ccc21 .
76

Fill in reported Inhibition for this entry: COc1cc(NC(=O)c2sc(-c3ccc(Cl)cc3)cc2NC(=O)c2cccnc2)ccc1OCCN1CCCC1
38

Return reported Inhibition. Input molecule: Cc1cc(CNCCCCCCCNCc2ccc(Cl)cc2)ccc1O
13

Return the recorded Inhibition value; entry: CN1CCc2ccc(NC(=O)Nc3ccc(-c4ccccc4)cc3)cc2C1
24

Return value of Inhibition for input CCOc1ccccc1CNc1nccc(NCc2ccccc2OC)n1 , no commentary.
50

Give the reported Inhibition for this molecule. CS(=O)(=O)c1cccc(-c2cnc3[nH]cc(-c4cccc(CCN)c4)c3c2)c1.O=C(O)C(F)(F)F
0

----------
Test system: Plasmodium falciparum
assay.protocol: GSK_TCMDC: Inhibition of Plasmodium falciparum Dd2 in whole red blood cells, using parasite LDH activity as an index of growth. Test compounds present at 2uM
Type: functional
assay.endpoint: Inhibition (%)
Provide only the numeric value, understood in %.

compound="CCN1C(=O)C(CC(=O)Nc2cccc(Cl)c2)N(Cc2ccc(OC)c(OC)c2)C1=S (centres undefined)" experimental_result=68
compound=Cc1nnc2c(NC(=O)NC3CCCC3)cc3ccc(-c4cccc(CN5CCN(C)CC5)c4)cc3n12 experimental_result=68
compound=COc1cccc(OC(C)(C)c2nc(N[C@@H](C)c3ccccc3)c3cn[nH]c3n2)c1 experimental_result=69

Consider the record given below.
Report Inhibition, nothing else, for this compound: Cc1cnc2cc3c(cc2c1N1CCN(C)CC1)NCC3
69

----------
Tested on: Plasmodium falciparum
assay.protocol: GSK_TCMDC: Inhibition of Plasmodium falciparum 3D7 in whole red blood cells, using parasite LDH activity as an index of growth. Test compounds present at 2uM
Type: functional
assay.endpoint: Inhibition (%)
Provide the reading as a plain figure in %.

compound=COc1cc(NC(=O)c2sc(-c3ccc(Cl)cc3)cc2NC(=O)c2cccnc2)ccc1OCCN1CCCC1 assay_endpoint=Inhibition experimental_result=94
compound=Cc1cc(N(C)C)nc(Nc2ccc(NC(=O)c3ccccc3F)cc2)n1 assay_endpoint=Inhibition experimental_result=89
compound="CC(CCCCOCCc1ccccc1)NCC(O)c1cc(Cl)c(N)c(Cl)c1 (stereo unspecified)" assay_endpoint=Inhibition experimental_result=96
compound=Cc1cc(O)c(-c2ccc(Sc3ccc(Cl)cc3)cc2)c(C)n1 assay_endpoint=Inhibition experimental_result=92
compound=Oc1ccc2nc(Nc3ccccc3)nc(NCCc3ccccc3)c2c1 assay_endpoint=Inhibition experimental_result=100

Given the compound Cc1cc(OCC2CCCO2)c2cc(NC(=O)C(=O)Nc3ccc4nc(C)cc(OCC5CCCO5)c4c3)ccc2n1 (stereo unspecified) , write its reported Inhibition.
96

Tell me its Inhibition given CCN(CC)CCN(Cc1ccc(-c2ccc(C(F)(F)F)s2)cc1)C(=O)Cn1c(CCc2cccc(F)c2F)nc(=O)c2ccccc21.O=C(O)C(O)C(O)C(=O)O as the entry.
94

Answer with the recorded Inhibition of FC(F)(F)c1ccc2[nH]c(-c3cccc(-c4ccc(CNCCc5ccncc5)cc4)c3)nc2c1.O=C(O)C(F)(F)F only.
99

Identify measured Inhibition associated with CC1CN(c2nc(NCCc3ccc(O)cc3)nc(NCc3ccccc3-c3ccc(C(F)(F)F)cc3)n2)CC(C)N1 (stereo unspecified)
100

Consider the compound COC(=O)Cc1ccc(N)c2ccccc12.Cl . State its measured Inhibition.
98

Identify measured Inhibition associated with O=C(/C=C/c1ccc(Cl)c(Cl)c1)NCCCCCN1CCC(NC(=S)Nc2ccc(Cl)cc2Cl)CC1
99
